- experimentalSystem: GST-tagged human ROCK2 catalytic domain 1-553 (Homo sapiens (Human), UniProt O75116)
- Sequence (O75116 1-553): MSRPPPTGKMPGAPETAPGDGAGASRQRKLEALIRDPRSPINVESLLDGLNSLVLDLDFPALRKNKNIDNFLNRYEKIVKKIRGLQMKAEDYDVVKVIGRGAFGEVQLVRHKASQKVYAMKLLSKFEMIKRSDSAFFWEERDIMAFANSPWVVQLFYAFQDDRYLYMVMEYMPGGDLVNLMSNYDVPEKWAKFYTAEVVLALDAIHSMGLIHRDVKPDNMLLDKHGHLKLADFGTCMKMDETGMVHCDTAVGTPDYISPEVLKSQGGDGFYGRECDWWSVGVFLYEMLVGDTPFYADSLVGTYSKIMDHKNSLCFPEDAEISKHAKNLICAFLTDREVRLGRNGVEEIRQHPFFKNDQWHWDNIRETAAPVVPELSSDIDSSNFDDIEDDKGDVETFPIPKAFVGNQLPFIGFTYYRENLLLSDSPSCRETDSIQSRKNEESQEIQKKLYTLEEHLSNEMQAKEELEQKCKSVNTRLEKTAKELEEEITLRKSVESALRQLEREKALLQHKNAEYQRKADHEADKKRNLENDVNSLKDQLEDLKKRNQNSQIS
- measurementNotes: Inhibition of Rho-associated protein kinase isoform 2 (LANCE Ultra ULight-CREBtide FRET kinase assay)
- Format: biochemical
- conditionDescription: selectivity ROCK2 vs ROCK1
# reported Selectivity for ROCK2 over ROCK1 (IC50 ROCK1 / IC50 ROCK2); entries follow

Here is how some molecules turned out for Selectivity for ROCK2 over ROCK1 (IC50 ROCK1 / IC50 ROCK2).
                                   molecule  result
0  O=C(Cc1ccc(F)cc1)Nc1cc(-c2nnc(Nc3ccc4[nH]ncc4c3Cl)s2)ccn1 [Example 35G]      >5
1  Nc1cc(-c2nnc(Nc3ccc4[nH]ncc4c3)s2)ccn1.O=C(O)C(F)(F)F [Example 35CQ]    >100
2  CC1(C)CN=C(c2cccc(-c3nnc(Nc4ccc5[nH]ncc5c4Cl)s3)c2)O1 [Example 75Q]      >5

In the following, a different molecule is considered.
Task: Which Selectivity for ROCK2 over ROCK1 (IC50 ROCK1 / IC50 ROCK2) reading was recorded for the molecule O=C(Nc1cc(-c2nnc(Nc3ccc4[nH]ncc4c3Cl)s2)ccn1)N1CCOCC1 [Example 35A] ?
Result: >5

---

Property: Selectivity for ROCK2 over ROCK1 (IC50 ROCK1 / IC50 ROCK2); scope: individual compounds
- experimentalSystem: GST-tagged human ROCK2 catalytic domain 1-553 (Homo sapiens (Human), UniProt O75116)
- measurementNotes: Inhibition of Rho-associated protein kinase isoform 2 (LANCE Ultra ULight-CREBtide FRET kinase assay)
- Type: biochemical
- conditionDescription: selectivity ROCK2 vs ROCK1

Observe how each entry below is paired with its result.
>>> print(df.to_string())
                                   compound  result
0  CCc1cn2cccc(-c3nnc(Nc4ccc5[nH]nc(C)c5c4)s3)c2n1 [Example 50A]      >5
1  c1cc(-c2nnco2)cc(-c2nnc(Nc3ccc4[nH]ncc4c3)s2)c1      <5
2  N#Cc1ccc(CC(=O)Nc2cccc(-c3nnc(Nc4ccc5[nH]ncc5c4Cl)s3)c2)cc1 [Example 35BK]    >100

Task: Which value of Selectivity for ROCK2 over ROCK1 (IC50 ROCK1 / IC50 ROCK2) has been reported for N[C@@H](Cc1ccccc1)C(=O)Nc1cccc(-c2nnc(Nc3ccc4[nH]ncc4c3Cl)s2)c1 [Example 35AV] in the records?
Result: >5

---

- experimentalSystem: GST-tagged human ROCK2 catalytic domain 1-553 (Homo sapiens (Human), UniProt O75116)
- measurementNotes: Inhibition of Rho-associated protein kinase isoform 2 (LANCE Ultra ULight-CREBtide FRET kinase assay)
- Type: biochemical
- conditionDescription: selectivity ROCK2 vs ROCK1
As shown below, each of these molecules has a reported Selectivity for ROCK2 over ROCK1 (IC50 ROCK1 / IC50 ROCK2) value.

Worked cases, Selectivity for ROCK2 over ROCK1 (IC50 ROCK1 / IC50 ROCK2) given:
>>> print(df.to_string())
                                   molecule  result
0  Brc1ccc(-c2cn3cccc(-c4nnc(Nc5ccc6[nH]ncc6c5)s4)c3n2)cc1 [Example 52G]    >100
1  O=C(Nc1cc(-c2nnc(Nc3ccc4[nH]ncc4c3)s2)ccn1)c1c[nH]cn1    >100
2  CC1(C)COC(c2cccc(-c3nnc(Nc4ccc5[nH]ncc5c4Cl)s3)c2)=N1 [Example 46F]      >5
3  CC(=O)Nc1cc(CO)cc(-c2nnc(Nc3ccc4[nH]ncc4c3Cl)s2)c1 [Example 48H]     >50
4  CN(C)Cc1cc(-c2ncco2)cc(-c2nnc(Nc3ccc4[nH]ncc4c3Cl)s2)c1 [Example 75P]      >5

Task: Fill in: Selectivity for ROCK2 over ROCK1 (IC50 ROCK1 / IC50 ROCK2) of COc1cccc(C(=O)Nc2cccc(-c3nnc(Nc4ccc5[nH]ncc5c4Cl)s3)c2)c1 [Example 35BT] is ___
Result: >5

Task: Which measured Selectivity for ROCK2 over ROCK1 (IC50 ROCK1 / IC50 ROCK2) value corresponds to Cn1cc(C(=O)Nc2cc(-c3nnc(Nc4ccc5[nH]ncc5c4)s3)ccn2)cn1 [Example 75I] ?
Result: <5

Task: Tell me the measured Selectivity for ROCK2 over ROCK1 (IC50 ROCK1 / IC50 ROCK2) of CC(C)(O)CNC(=O)c1cccc(-c2nnc(Nc3ccc4[nH]ncc4c3Cl)s2)c1 [Example 75F] , please.
Result: >5

---

- experimentalSystem: GST-tagged human ROCK2 catalytic domain 1-553 (Homo sapiens (Human))
- measurementNotes: Inhibition of Rho-associated protein kinase isoform 2 (LANCE Ultra ULight-CREBtide FRET kinase assay)
- Type: biochemical
- conditionDescription: selectivity ROCK2 vs ROCK1
propertyLabel: Selectivity for ROCK2 over ROCK1 (IC50 ROCK1 / IC50 ROCK2)

Task: Test system GST-tagged human ROCK2 catalytic domain 1-553 (Homo sapiens (Human)); read-out Selectivity for ROCK2 over ROCK1 (IC50 ROCK1 / IC50 ROCK2); what value for Cc1cnn(CC(=O)Nc2cccc(-c3nnc(N(C)c4ccc5[nH]ncc5c4Cl)s3)c2)c1 [Example 54C] ?
Result: <5

Task: Can you look up Selectivity for ROCK2 over ROCK1 (IC50 ROCK1 / IC50 ROCK2) on GST-tagged human ROCK2 catalytic domain 1-553 (Homo sapiens (Human)) for CC(C)NC(=O)COc1cncc(-c2nnc(Nc3ccc4[nH]ncc4c3)s2)c1 [Example 75L] ?
Result: >75

Task: Lab note: need Selectivity for ROCK2 over ROCK1 (IC50 ROCK1 / IC50 ROCK2) with GST-tagged human ROCK2 catalytic domain 1-553 (Homo sapiens (Human)) for entry O=C(Nc1cccc(-c2nnc(Nc3ccc4[nH]ncc4c3Cl)s2)c1)C1CNC1 [Example 35AD] , please look it up.
Result: >5

Task: Given the entry COc1ccc(NC(C)=O)cc1-c1nnc(Nc2ccc3[nH]ncc3c2Cl)s1 [Example 48J] , what Selectivity for ROCK2 over ROCK1 (IC50 ROCK1 / IC50 ROCK2) was observed with GST-tagged human ROCK2 catalytic domain 1-553 (Homo sapiens (Human))?
Result: >5

Task: Param readout= Selectivity for ROCK2 over ROCK1 (IC50 ROCK1 / IC50 ROCK2); system= GST-tagged human ROCK2 catalytic domain 1-553 (Homo sapiens (Human)); entry= Cn1nccc1C(=O)Nc1cccc(-c2nnc(Nc3ccc4[nH]ncc4c3)s2)c1 ; returns value.
Result: >100

Task: Query the reported Selectivity for ROCK2 over ROCK1 (IC50 ROCK1 / IC50 ROCK2) for GST-tagged human ROCK2 catalytic domain 1-553 (Homo sapiens (Human)); item: O=C(O)C(F)(F)F.OCc1cc(-c2ncco2)cc(-c2nnc(Nc3ccc4[nH]ncc4c3Cl)s2)c1 [Example 41C]
Result: >5

Task: What reported Selectivity for ROCK2 over ROCK1 (IC50 ROCK1 / IC50 ROCK2) corresponds to c1cc(-c2ncco2)cc(-c2nnc(Nc3ccc4[nH]ncc4c3)s2)c1 on GST-tagged human ROCK2 catalytic domain 1-553 (Homo sapiens (Human))?
Result: >100

Task: GST-tagged human ROCK2 catalytic domain 1-553 (Homo sapiens (Human)) / Selectivity for ROCK2 over ROCK1 (IC50 ROCK1 / IC50 ROCK2) / NC(Cc1ccc(Cl)cc1)C(=O)Nc1cccc(-c2nnc(Nc3ccc4[nH]ncc4c3Cl)s2)c1 (centres unmarked) [Example 35BF] : value?
Result: >5

Task: Param readout = Selectivity for ROCK2 over ROCK1 (IC50 ROCK1 / IC50 ROCK2); param system = GST-tagged human ROCK2 catalytic domain 1-553 (Homo sapiens (Human)); param query = CC(=O)Nc1cc(F)c(F)c(-c2nnc(Nc3ccc4[nH]ncc4c3)s2)c1 [Example 35CB] ; response: value
Result: >100

Task: Can you look up Selectivity for ROCK2 over ROCK1 (IC50 ROCK1 / IC50 ROCK2) on GST-tagged human ROCK2 catalytic domain 1-553 (Homo sapiens (Human)) for Cn1cc(C(=O)Nc2cncc(-c3nnc(Nc4ccc5[nH]ncc5c4Cl)s3)c2)cn1 [Example 35BU] ?
Result: >5

---

- experimentalSystem: GST-tagged human ROCK2 catalytic domain 1-553 (Homo sapiens (Human), UniProt O75116)
- measurementNotes: Inhibition of Rho-associated protein kinase isoform 2 (LANCE Ultra ULight-CREBtide FRET kinase assay)
- Format: biochemical
- conditionDescription: selectivity ROCK2 vs ROCK1
propertyLabel: Selectivity for ROCK2 over ROCK1 (IC50 ROCK1 / IC50 ROCK2)

// worked examples, Selectivity for ROCK2 over ROCK1 (IC50 ROCK1 / IC50 ROCK2) included
                                   compound  result
0  O=C(Cc1ccc(F)cc1)Nc1cccc(-c2nnc(Nc3ccc4[nH]ncc4c3Cl)s2)c1 [Example 35BO]     >50
1  O=C(Nc1cccc(-c2nnc(Nc3ccc4[nH]ncc4c3Cl)s2)c1)c1cnccn1 [Example 35BR]    >100

Task: Sample Cn1c(C2CC2)nc2c(-c3nnc(Nc4ccc5[nH]ncc5c4)s3)cccc21 [Example 56G] — what was its Selectivity for ROCK2 over ROCK1 (IC50 ROCK1 / IC50 ROCK2)?
Result: >100

Task: # get_value(readout='Selectivity for ROCK2 over ROCK1 (IC50 ROCK1 / IC50 ROCK2)', item= CC(=O)Nc1cc(C(=O)N2CCC(C(=O)O)CC2)cc(-c2nnc(Nc3ccc4[nH]ncc4c3Cl)s2)c1 [Example 48Q] )
Result: >5

Task: Report Selectivity for ROCK2 over ROCK1 (IC50 ROCK1 / IC50 ROCK2) for CCN(CC)Cc1cc(NC(C)=O)cc(-c2nnc(Nc3ccc4[nH]ncc4c3Cl)s2)c1.O=C(O)C(F)(F)F [Example 48A] please.
Result: >5

Task: Given CC(C)(CO)NC(=O)c1cccc(-c2nnc(Nc3ccc4[nH]ncc4c3Cl)s2)c1 [Example 35AR] , state its recorded Selectivity for ROCK2 over ROCK1 (IC50 ROCK1 / IC50 ROCK2).
Result: >5

Task: Find the recorded Selectivity for ROCK2 over ROCK1 (IC50 ROCK1 / IC50 ROCK2) belonging to O=C(Nc1cccc(-c2nnc(Nc3ccc4[nH]ncc4c3)s2)c1)c1c[nH]cn1 and report it.
Result: >100

Task: Could you share which Selectivity for ROCK2 over ROCK1 (IC50 ROCK1 / IC50 ROCK2) value was measured for O=C(Nc1cccc(-c2nnc(Nc3ccc4[nH]ncc4c3)s2)n1)c1c[nH]cn1 ?
Result: >100
